- TARGET OF ASSAY: PDE9A (Homo sapiens)
- Sequence (O76083 whole entry): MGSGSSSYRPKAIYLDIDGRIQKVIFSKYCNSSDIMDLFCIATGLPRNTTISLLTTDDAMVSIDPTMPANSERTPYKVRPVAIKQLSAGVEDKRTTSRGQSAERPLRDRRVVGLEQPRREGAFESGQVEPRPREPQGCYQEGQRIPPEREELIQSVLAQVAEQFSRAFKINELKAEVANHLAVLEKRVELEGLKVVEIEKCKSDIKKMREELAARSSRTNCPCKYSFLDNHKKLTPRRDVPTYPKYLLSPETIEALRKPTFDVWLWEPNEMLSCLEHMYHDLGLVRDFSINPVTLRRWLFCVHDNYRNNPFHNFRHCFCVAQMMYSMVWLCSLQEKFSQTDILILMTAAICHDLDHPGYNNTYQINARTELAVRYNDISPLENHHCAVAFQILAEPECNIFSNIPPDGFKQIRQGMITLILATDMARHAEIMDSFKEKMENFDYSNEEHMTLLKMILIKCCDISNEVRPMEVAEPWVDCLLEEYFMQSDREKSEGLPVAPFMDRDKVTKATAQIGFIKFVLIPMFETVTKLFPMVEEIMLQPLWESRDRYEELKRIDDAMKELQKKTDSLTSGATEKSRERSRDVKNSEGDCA
- PROTOCOL TEXT: PDE enzymatic activity assay (SPA), PDE9A
- Assay type: biochemical
- Set-up: made in house; host or cells: SF9 insect cells (crude lysate used as enzyme source)
- CONDITION DESCRIPTION: 10 micromolar; cGMP substrate; for illustrative purposes
MEASURED PARAMETER: inhibition at 10 µM (%)

1. O=c1[nH]c(Cc2ccccc2OC(F)(F)F)nc2c1cnn2-c1cccnc1 :: 89
2. O=C(c1cccc(-n2ncc3c(=O)[nH]c(Cc4ccccc4OC(F)(F)F)nc32)c1)N1CCOCC1 :: 92
3. COc1ccc(Cl)c(-n2ncc3c(=O)[nH]c(Cc4ccccc4OC(F)(F)F)nc32)c1 :: 98
4. O=c1[nH]c(Cc2ccccc2OC(F)(F)F)nc2c1cnn2-c1cc(O)ccc1Cl :: 100
5. O=c1[nH]c(Cc2ccccc2OC(F)(F)F)nc2c1cnn2-c1cc(Br)ccc1Cl :: 88
6. Cc1ccc(F)cc1-n1ncc2c(=O)[nH]c(Cc3ccccc3OC(F)(F)F)nc21 :: 95
7. Cc1cc(F)ccc1-n1ncc2c(=O)[nH]c(Cc3ccccc3OC(F)(F)F)nc21 :: 98
8. COc1c(F)cccc1-n1ncc2c(=O)[nH]c(Cc3ccccc3OC(F)(F)F)nc21 :: 95
9. Cc1ccc(Cl)c(-n2ncc3c(=O)[nH]c(Cc4ccccc4OC(F)(F)F)nc32)c1 :: 95
10. Cc1cccc(-n2ncc3c(=O)[nH]c(Cc4ccccc4OC(F)(F)F)nc32)c1C :: 74

----------
- TARGET OF ASSAY: PDE1C (Homo sapiens)
- Construct: made in house; host or cells: SF9 insect cells (crude lysate used as enzyme source)
- PROTOCOL TEXT: PDE enzymatic activity assay (SPA), PDE1C, cAMP as substrate
- Type: biochemical
- CONDITION DESCRIPTION: ratio IC50 PDE1C / IC50 PDE9A; for illustrative purposes
MEASURED PARAMETER: Selectivity = IC50 PDE 1C/IC50 PDE9A (both nanomolar)

1. Cc1ccc(C)c(-n2ncc3c(=O)[nH]c(Cc4ccccc4OC(F)(F)F)nc32)c1 [Example 18] :: 28
2. O=c1[nH]c(Cc2ccccc2OC(F)(F)F)nc2c1cnn2-c1cc(F)ccc1Br [Example 7] :: 9
3. O=c1[nH]c(Cc2ccccc2OC(F)(F)F)nc2c1cnn2-c1ccc(F)cc1Br [Example 9] :: 6
4. O=c1[nH]c(Cc2ccccc2OC(F)(F)F)nc2c1cnn2-c1ncc(F)cc1F [Example 39] :: 4
5. O=c1[nH]c(Cc2ccccc2OC(F)(F)F)nc2c1cnn2-c1cc(Cl)ccc1Cl [Example 16] :: 71
6. Cc1ccc(Br)c(-n2ncc3c(=O)[nH]c(Cc4ccccc4OC(F)(F)F)nc32)c1 [Example 10] :: 7
7. O=C(O)c1cccc(-n2ncc3c(=O)[nH]c(Cc4ccccc4OC(F)(F)F)nc32)c1 [Example 30-1] :: 55
8. O=C(O)c1ccc(Cl)c(-n2ncc3c(=O)[nH]c(Cc4ccccc4OC(F)(F)F)nc32)c1 [Example 30-2] :: 55

a. O=c1[nH]c(Cc2ccccc2OC(F)(F)F)nc2c1cnn2-c1c(Cl)cccc1Cl [Example 25]
b. COc1ccc(Cl)c(-n2ncc3c(=O)[nH]c(Cc4ccccc4OC(F)(F)F)nc32)c1 [Example 22]
c. Cc1ccc(Cl)cc1-n1ncc2c(=O)[nH]c(Cc3ccccc3OC(F)(F)F)nc21 [Example 15]
d. Cc1cc(-n2ncc3c(=O)[nH]c(Cc4ccccc4OC(F)(F)F)nc32)c(Cl)cc1F [Example 23]
e. Cc1cccc(-n2ncc3c(=O)[nH]c(Cc4ccccc4OC(F)(F)F)nc32)c1C [Example 19]
Query: Ascending sort, Selectivity = IC50 PDE 1C/IC50 PDE9A (both nanomolar). Please list each label once, in the requested order.
Result: e, b, a, d, c

P. O=c1[nH]c(Cc2ccccc2OC(F)(F)F)nc2c1cnn2-c1ccc(F)cc1Cl [Example 13]
Q. O=C(c1ccc(Cl)c(-n2ncc3c(=O)[nH]c(Cc4ccccc4OC(F)(F)F)nc32)c1)N1CCOCC1 [Example 37]
R. COc1ccc(Cl)cc1-n1ncc2c(=O)[nH]c(Cc3ccccc3OC(F)(F)F)nc21 [Example 4]
S. Cc1cccc(Cl)c1-n1ncc2c(=O)[nH]c(Cc3ccccc3OC(F)(F)F)nc21 [Example 24]
T. Cc1ccc(Cl)c(-n2ncc3c(=O)[nH]c(Cc4ccccc4OC(F)(F)F)nc32)c1 [Example 3]
Query: Highest Selectivity = IC50 PDE 1C/IC50 PDE9A (both nanomolar) first, then in falling order down to the smallest. Returns: the labels listed in the requested order.
Result: R, S, Q, P, T

Where do these numbers come from? They come from patent US8648085B2.
